Tested on: MNCs from ENKTL patients
Conditions: read-out: IC50 (µM) ENKTL, half-maximal cell death activity, peptides 0.1–15 µM, 6 h, PI staining, FACS, mean ± SEM, n in cell
Ends that are not written are not given here.
Listing of entries alongside the reported IC50.

{"columns": ["Substance", "Unit Annotation", "Bound Operator", "IC50"],
 "data": [
  ["GYGRKKRRQRRRGLQQAQKEN [TAT-HKC8]", "µM", "=", 1.9],
  ["RQIKIWFQNRRMKWKKLQQAQKEN [Antp-HKC8]", "µM", "=", 1.3],
  ["HAIYPRHMFAVHLMAFYFSKLK [Tf-HKN15]", "µM", ">", 15],
  ["HAIYPRH-ITAVAKRLQQAQKEN [Tf-D-HKC15]", "µM", "=", 0.9],
  ["GYGRKKRRQRRRG-LQQAQKEN [TAT-D-HKC8]", "µM", "=", 1.5],
  ["GKPILFFLQQAQKEN [PAS-HKC8]", "µM", "=", 1.4],
  ["HAIYPRH-EILNKEKK [Tf-D-Scram, reference compound]", "µM", ">", 15],
  ["HAIYPRHLQQAQKEN [Tf-HKC8]", "µM", "=", 0.5],
  ["RQIKIWFQNRRMKWKK-LQQAQKEN [Antp-D-HKC8]", "µM", "=", 1],
  ["GKPILFF-LQQAQKEN [PAS-D-HKC8]", "µM", "=", 1.1],
  ["HAIYPRHEILNKEKK [Tf-Scram, reference compound]", "µM", ">", 15],
  ["HAIYPRH-MFAVHLMAFYFSKLK [Tf-D-HKN15]", "µM", ">", 15],
  ["HAIYPRH-LQQAQKEN [Tf-D-HKC8]", "µM", "=", 0.2],
  ["HAIYPRHITAVAKRLQQAQKEN [Tf-HKC15]", "µM", "=", 1.2]
]}

----------
Tested on: Kasumi-1
Test: Cell death IC50 by PI staining/FACS
Format: cell-based
Conditions: Human acute myeloblastic leukemia/EBV(−), 0.1–15 µM, 6 h (suspension) or 12 h (adherent cells), mean ± SEM, read-out: Peptide IC50 (µM), cell death, Kasumi-1
Experimental: Measurement of apoptosis and cell death. Apoptosis was evaluated by TUNEL assay using the In Situ Cell Death Detection Kit™ (Roche). Cells were fixed in 4% paraformaldehyde and labeled with TUNEL reagents. Stained cells were photographed by a fluorescence microscope (11). For cell death analysis, the propidium iodide (PI) staining was performed by addition of 6.25 µg/ml of PI to the cells, and cell death was immediately evaluated by FACS analysis (3).
Listing of entries alongside the reported IC50.
Property Name: IC50

{"columns": ["Substance", "Property Name", "Val"],
 "data": [
  ["HAIYPRH-ITAVAKRLQQAQKEN [Tf-D-HKC15]", "IC50", "2.7 µM"],
  ["HAIYPRH-LQQAQKEN [Tf-D-HKC8]", "IC50", "1.8 µM"]
]}

----------
System: SW480
Assay: Cell death IC50 by PI staining/FACS
Format: cell-based
Conditions: Human colorectal adenocarcinoma/EBV(−), 0.1–15 µM, 6 h (suspension) or 12 h (adherent cells), mean ± SEM, read-out: Peptide IC50 (µM), cell death, SW480

{"columns": ["Substance", "IC50 (µM)"],
 "data": [
  ["HAIYPRH-LQQAQKEN [Tf-D-HKC8]", 6.7],
  ["HAIYPRH-ITAVAKRLQQAQKEN [Tf-D-HKC15]", 8.9]
]}
